Each record here notes measured log10(IC50).
Experiment: Inhibition of gamma-secretase-mediated amyloid beta-42 production in diluted 2B7 conditioned media after 5 hrs
A difference of one corresponds to tenfold IC50; all values are log10 with IC50 in µM.

# compound "CC(=O)O[C@@H]([C@H]1C[C@@H](C)[C@H]2[C@H](O1)[C@H](O)[C@@]1(C)[C@@H]3CC[C@H]4C(C)(C)[C@@H](O[C@H]5CN(C(=O)N(C)C)CCO5)CC[C@@]45C[C@@]35CC[C@]21C)C(C)(C)O" ; its log10(IC50) = -1.22

More entries:
# compound "CC(=O)O[C@@H]([C@H]1C[C@@H](C)[C@H]2[C@H](O1)[C@H](O)[C@@]1(C)[C@@H]3CC[C@H]4C(C)(C)[C@@H](O[C@H]5CN(C(C)=O)CCO5)CC[C@@]45C[C@@]35CC[C@]21C)C(C)(C)O" ; its log10(IC50) = -1.05

# compound "CC(=O)O[C@@H]([C@H]1C[C@@H](C)[C@H]2[C@H](O1)[C@H](O)[C@@]1(C)[C@@H]3CC[C@H]4C(C)(C)[C@@H](O[C@H]5CN(Cc6ccccc6)CCO5)CC[C@@]45C[C@@]35CC[C@]21C)C(C)(C)O" ; its log10(IC50) = 0.30

Hey, just so you know, these numbers are from ChEMBL document CHEMBL2150910.
